For each record, write down the corresponding NanoBRET Fold Response.
- study-target: HTR2C (Homo sapiens)
- Construct: purchased Promega (in-house HiBiT-GPCR construct library, NanoBRET)
- Sequence (P28335 33-458): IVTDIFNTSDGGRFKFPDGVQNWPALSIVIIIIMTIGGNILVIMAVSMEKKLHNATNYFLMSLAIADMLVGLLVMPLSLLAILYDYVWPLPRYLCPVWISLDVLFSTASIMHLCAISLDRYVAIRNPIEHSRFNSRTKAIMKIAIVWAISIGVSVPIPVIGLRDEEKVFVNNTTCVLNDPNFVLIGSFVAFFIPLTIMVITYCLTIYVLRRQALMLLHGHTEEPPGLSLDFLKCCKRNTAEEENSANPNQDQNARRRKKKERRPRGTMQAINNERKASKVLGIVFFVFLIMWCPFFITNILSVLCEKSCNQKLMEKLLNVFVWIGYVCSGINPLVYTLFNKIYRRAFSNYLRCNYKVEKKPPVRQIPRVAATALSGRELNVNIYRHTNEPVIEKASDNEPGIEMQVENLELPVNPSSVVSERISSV
- protocol-description: NanoBRET screen HiBiT-HTR2C in HEK293
- Format: binding
- reported-conditions: HTR2C; tracer 1μM
One number for each entry.

COc1ccccc1N1CCN(CCCCN2C(=O)c3ccc(CNC(=O)CCOCCNC(=O)c4ccc(CNC(=O)CCc5ccc6n5[B-](F)(F)[N+]5=C(c7ccc[nH]7)C=CC5=C6)cc4)cc3C2=O)CC1 :: 1.06
O=C(CCc1ccc2n1[B-](F)(F)[N+]1=C(c3ccc[nH]3)C=CC1=C2)NCc1ccc(C(=O)NCCOCCC(=O)N[C@@H]2CC[C@@]3(O)[C@H]4Cc5ccc(O)c6c5[C@@]3(CCN4CC3CC3)[C@H]2O6)cc1 [Naltrexone-3-NB590] :: 1.03

Would you kindly look at the next entry?
Identify the reported NanoBRET Fold Response for the following entry. O=C(CCc1ccc2n1[B-](F)(F)[N+]1=C(c3ccc[nH]3)C=CC1=C2)NCCOCCOCCNC(=O)OCCOCCN1CCN(C2=Nc3ccccc3Sc3ccccc32)CC1
1.17

* * *

- study-target: CCR9 (Homo sapiens, UniProt P51686)
- Construct: purchased Promega (in-house HiBiT-GPCR construct library, NanoBRET)
- Sequence (P51686 1-369): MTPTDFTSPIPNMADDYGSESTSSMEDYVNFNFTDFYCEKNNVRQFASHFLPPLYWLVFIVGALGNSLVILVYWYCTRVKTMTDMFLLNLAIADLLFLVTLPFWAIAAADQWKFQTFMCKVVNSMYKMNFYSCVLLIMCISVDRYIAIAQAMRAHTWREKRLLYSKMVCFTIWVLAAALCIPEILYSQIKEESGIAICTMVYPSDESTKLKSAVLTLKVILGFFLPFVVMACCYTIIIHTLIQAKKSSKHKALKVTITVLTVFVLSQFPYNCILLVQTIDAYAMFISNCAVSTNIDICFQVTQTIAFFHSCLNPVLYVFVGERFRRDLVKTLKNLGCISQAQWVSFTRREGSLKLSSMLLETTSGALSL
- protocol-description: NanoBRET screen HiBiT-CCR9 in HEK293
- Assay type: binding
- reported-conditions: CCR9; tracer 0.1μM
reported-metric: NanoBRET Fold Response
Answers are plain numbers.

A selection of reference data follows.
N#CN=C(NCCCOc1cccc(CN2CCCCC2)c1)NCCNC(=O)CCOCCOCCOCCOCCNC(=O)CCc1ccc2n1[B-](F)(F)[N+]1=C(c3ccc[nH]3)C=CC1=C2 :: 1.09
O=C(CCc1ccc2n1[B-](F)(F)[N+]1=C(c3ccc[nH]3)C=CC1=C2)NCc1ccc(C(=O)NCCOCCC(=O)N[C@@H]2CC[C@@]3(O)[C@H]4Cc5ccc(O)c6c5[C@@]3(CCN4CC3CC3)[C@H]2O6)cc1 [Naltrexone-3-NB590] :: 0.55
COc1ccccc1N1CCN(CCCCN2C(=O)c3ccc(CNC(=O)CCOCCNC(=O)c4ccc(CNC(=O)CCc5ccc6n5[B-](F)(F)[N+]5=C(c7ccc[nH]7)C=CC5=C6)cc4)cc3C2=O)CC1 :: 1.14
CC(C)N(CC[C@H](c1ccccc1)c1cc(CCNC(=O)CCOCCOCCOCCOCCNC(=O)CCc2ccc3n2[B-](F)(F)[N+]2=C(c4ccc[nH]4)C=CC2=C3)ccc1O)C(C)C :: 1.12

Please turn your attention to the following entry.
Determine its reported NanoBRET Fold Response: COc1ccccc1N1CCN(CCCCN2C(=O)c3ccc(CNC(=O)CCOCCOCCOCCOCCNC(=O)CCc4ccc5n4[B-](F)(F)[N+]4=C(c6ccc[nH]6)C=CC4=C5)cc3C2=O)CC1
0.98
